Hello, the source for this data is ChEMBL document CHEMBL1131409, in case you need it.

system: SK-OV-3; assay: In vitro cytotoxicity against SKOV-3 ovarian cells using the sulforhodamine B(SRB) assay.; type: functional, cell-based; settings: Homo sapiens
Kindly state log10 IC50 for each of the entries shown.
Form field - Quantity: IC50; Unit: µM; Scale: log10

Illustrative cases are given below, each with its answer.
O=C(CCN1CCCCC1)Nc1cccc2c1C(=O)c1c(NC(=O)CCN3CCCCC3)cccc1C2=O; 0.37
C[N+]1(CCC(=O)Nc2ccc3c(c2)C(=O)c2cc(NC(=O)CC[N+]4(C)CCOCC4)ccc2C3=O)CCOCC1; 0.47
C[N+]1(CCC(=O)Nc2cccc3c2C(=O)c2cccc(NC(=O)CC[N+]4(C)CCCC4)c2C3=O)CCCC1; 1.00
O=C(CCN1CCCCC1)Nc1cccc2c1C(=O)c1cccc(NC(=O)CCN3CCCCC3)c1C2=O; -0.09
O=C(CCN1CCCC1)Nc1ccc(NC(=O)CCN2CCCC2)c2c1C(=O)c1ccccc1C2=O; -0.41

// batch mode: one log10 IC50 value per listed entry
1. CCN(CC)CCC(=O)Nc1cccc2c1C(=O)c1c(NC(=O)CCN(CC)CC)cccc1C2=O
2. C[N+](C)(C)CCC(=O)Nc1cccc2c1C(=O)c1cccc(NC(=O)CC[N+](C)(C)C)c1C2=O
3. CC[N+](C)(CC)CCC(=O)Nc1ccc2c(c1)C(=O)c1ccc(NC(=O)CC[N+](C)(CC)CC)cc1C2=O
4. CCN(CC)CCC(=O)Nc1ccc2c(c1)C(=O)c1cc(NC(=O)CCN(CC)CC)ccc1C2=O
5. C[N+]1(CCC(=O)Nc2cccc3c2C(=O)c2c(NC(=O)CC[N+]4(C)CCCC4)cccc2C3=O)CCCC1
6. O=C(CCN1CCCC1)Nc1ccc2c(c1)C(=O)c1ccc(NC(=O)CCN3CCCC3)cc1C2=O

Ans.
0.72
0.76
0.81
0.86
0.70
1.58

Hi, could you look up log10 IC50 for each item in my list?
1. CC[N+](C)(CC)CCC(=O)Nc1cccc2c1C(=O)c1c(NC(=O)CC[N+](C)(CC)CC)cccc1C2=O
2. O=C(CCN1CCCC1)Nc1cccc2c1C(=O)c1c(NC(=O)CCN3CCCC3)cccc1C2=O
3. C[N+]1(CCC(=O)Nc2cccc3c2C(=O)c2cccc(NC(=O)CC[N+]4(C)CCCCC4)c2C3=O)CCCCC1
4. CCN(CC)CCC(=O)Nc1cccc2c1C(=O)c1cccc(NC(=O)CCN(CC)CC)c1C2=O

Ans.
[0.66, 0.08, 0.92, -0.21]
